Target: T1, HP0593 DNA-(N6-adenine)-methyltransferase (HP0593 MTase) (Helicobacter pylori 26695, UniProt O25315 1-598)
T1 sequence: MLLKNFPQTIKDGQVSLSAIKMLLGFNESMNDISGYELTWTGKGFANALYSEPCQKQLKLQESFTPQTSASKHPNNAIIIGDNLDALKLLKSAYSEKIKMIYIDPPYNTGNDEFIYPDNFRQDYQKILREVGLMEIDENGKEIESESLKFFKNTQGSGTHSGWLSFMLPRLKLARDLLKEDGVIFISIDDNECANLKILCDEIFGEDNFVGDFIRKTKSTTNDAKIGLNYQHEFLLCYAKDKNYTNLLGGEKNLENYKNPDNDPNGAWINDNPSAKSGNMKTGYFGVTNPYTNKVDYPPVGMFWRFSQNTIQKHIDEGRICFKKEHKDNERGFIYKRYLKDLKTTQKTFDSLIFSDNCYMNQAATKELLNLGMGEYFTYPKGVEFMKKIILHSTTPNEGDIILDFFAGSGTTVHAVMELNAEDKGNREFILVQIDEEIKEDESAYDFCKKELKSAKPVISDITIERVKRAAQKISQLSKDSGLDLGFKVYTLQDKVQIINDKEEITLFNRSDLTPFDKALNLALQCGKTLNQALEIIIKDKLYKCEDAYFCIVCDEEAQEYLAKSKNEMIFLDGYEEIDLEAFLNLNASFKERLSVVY
Assay: SPR; 1.0 mM MnCl2; EMSA: 10 mM potassium phosphate pH 5.5, 7 mM β-mercaptoethanol, 10% glycerol, no divalent metal, 10 min on ice, 0.5-5.0 µM protein, ~100 nM DNA, gel 0.5x TBE 4°C; SPR: 10 mM HEPES pH 7.4, 100 mM NaCl, 0.05% P-20, ±1.0 mM MnCl2, 25°C, 1:1 Langmuir global fit
Conditions: protein: recombinant; tags: N-terminal His6 (pET14b); label: 5' biotin on top strand, immobilized on SA chip; blunt
result.type: pKd
Please report pKd as the negative decimal logarithm of the molar concentration, giving only the number.

Q: What value of pKd has been reported for the following binder? duplex 18 (dsDNA) DNA 1: GATCAATAGATGCGCAGATCATTTACATT DNA 2: AATGTAAATGATCTGCGCATCTATTGATC
Result: 8.34
